pIC50: −log10 of the molar value.
Measurement record for Fibroblast growth factor receptor 2 (Homo sapiens, UniProt P21802); quantity recorded: pIC50.

INSERT INTO measurements (compound_structure_string, reading) VALUES
  ('C=CC(=O)Nc1cc(N2CCN(C3COC3)CC2)cc(F)c1Nc1n[nH]c2ccc(O[C@H](C)c3c(Cl)cncc3Cl)cc12', '< 5.00');

Dear colleague, could you please provide pIC50 for the compounds listed below?
1. C=CC(=O)Nc1cc(N2CCC(N3CCOCC3)CC2)ccc1Nc1n[nH]c2ccc(O[C@H](C)c3c(Cl)cncc3Cl)cc12
2. C=CC(=O)Nc1cc(N(C)CCOC)cc(F)c1Nc1n[nH]c2ccc(O[C@H](C)c3c(Cl)cncc3Cl)cc12
3. C=CC(=O)Nc1ccccc1Nc1n[nH]c2ccc(OCc3c(Cl)cncc3Cl)cc12

["< 5.00", "< 5.00", "< 5.00"]

Dear colleague, could you please provide pIC50 for the compounds listed below?
1. C=CC(=O)Nc1ccccc1Nc1n[nH]c2cc(-c3c(Cl)c(OC)cc(OC)c3Cl)ccc12
2. C=CC(=O)Nc1cc(N2CCN(C)CC2)ccc1Nc1n[nH]c2ccc(O[C@H](C)c3c(Cl)cncc3Cl)cc12

1: 5.32; 2: < 5.00

###

# Test system: BaF3
# assay details: Antiproliferative activity against mouse BAF3 cells expressing FGFR4 V550M mutant assessed as inhibition of cell growth incubated for 72 hrs by CCK8 assay
# Format: functional, cell-based
# recorded conditions: BaF3, 72 h
attribute measured: IC50 (nM)
One number for each entry, in nM.

INSERT INTO measurements (compound_structure_string, reading) VALUES
  ('C=CC(=O)Nc1cc(N2CCN(C)CC2)cc(F)c1Nc1n[nH]c2ccc(O[C@H](C)c3c(Cl)cncc3Cl)cc12', 3.7);

Could you now look at the following compound, please?
Tell me the measured IC50 of `C=CC(=O)Nc1cc(N2CCC(N3CCOCC3)CC2)cc(F)c1Nc1n[nH]c2ccc(O[C@H](C)c3c(Cl)cncc3Cl)cc12` , please.
8.1

###

Answer each item with its documented IC50.
# Test system: Hep 3B2
# assay details: cells
# recorded conditions: Homo sapiens, Hep3B, 120 h
# Description: Antiproliferative activity against human Hep3B cells assessed as inhibition of cell growth incubated for 5 days by SRB assay
One number for each entry, in nM.

INSERT INTO results (compound_structure_string, experimental_system, units_label, reading) VALUES
  ('C=CC(=O)Nc1cc(N2CCN(C)CC2)ccc1Nc1n[nH]c2ccc(O[C@H](C)c3c(Cl)cncc3Cl)cc12', 'Hep 3B2', 'nM', 290),
  ('C=CC(=O)Nc1cc(N2CCOCC2)ccc1Nc1n[nH]c2ccc(O[C@H](C)c3c(Cl)cncc3Cl)cc12', 'Hep 3B2', 'nM', 730),
  ('C=CC(=O)Nc1cc(N2CCC(N3CCOCC3)CC2)cc(F)c1Nc1n[nH]c2ccc(O[C@H](C)c3c(Cl)cncc3Cl)cc12', 'Hep 3B2', 'nM', 29);

Could you now look at the following compound, please?
Tell me the measured IC50 of `C=CC(=O)Nc1cc(N2CCN(C)CC2)cc(F)c1Nc1n[nH]c2ccc(O[C@H](C)c3c(Cl)cncc3Cl)cc12` , please.
18

###

Measurement record for Fibroblast growth factor receptor 3 (Homo sapiens, UniProt P22607); quantity recorded: IC50.

Worked examples, 2 molecules total:
INSERT INTO measurements (compound_structure_string, reading) VALUES
  ('C=CC(=O)Nc1cccc(OC)c1Nc1n[nH]c2ccc(O[C@H](C)c3c(Cl)cncc3Cl)cc12', '> 10 µM'),
  ('C=CC(=O)N1CCC[C@@H](Nc2n[nH]c3ccc(O[C@H](C)c4c(Cl)cncc4Cl)cc23)C1', '> 10 µM');

Could you now look at the following molecule, please?
Tell me the measured IC50 of `C=CC(=O)Nc1cn(C)nc1Nc1n[nH]c2ccc(O[C@H](C)c3c(Cl)cncc3Cl)cc12` , please.
> 10 µM

###

# System: Hep 3B2
# assay details: cells
# recorded conditions: Homo sapiens, Hep3B, 120 h
Answer each item with its documented pIC50.
Numbers only, as −log10 of the molar value.

Worked examples, 3 compounds total:
INSERT INTO measurements (compound_structure_string, reading) VALUES
  ('C=CC(=O)Nc1cc(N2CCN(C3COC3)CC2)cc(F)c1Nc1n[nH]c2ccc(O[C@H](C)c3c(Cl)cncc3Cl)cc12', 7.29),
  ('C=CC(=O)Nc1cc(N2CCN(S(C)(=O)=O)CC2)cc(F)c1Nc1c[nH]c2ccc(O[C@H](C)c3c(Cl)cncc3Cl)cc12', 6.96),
  ('C=CC(=O)Nc1cc(N2CCC(N3CCOCC3)CC2)ccc1Nc1n[nH]c2ccc(O[C@H](C)c3c(Cl)cncc3Cl)cc12', 6.66);

Dear colleague, could you please provide pIC50 for the compounds listed below?
1. C=CC(=O)Nc1cc(N2CCOCC2)cc(F)c1Nc1n[nH]c2ccc(O[C@H](C)c3c(Cl)cncc3Cl)cc12
2. C=CC(=O)Nc1cccc(F)c1Nc1n[nH]c2ccc(O[C@H](C)c3c(Cl)cncc3Cl)cc12
3. C=CC(=O)Nc1cccc(C)c1Nc1n[nH]c2ccc(O[C@H](C)c3c(Cl)cncc3Cl)cc12
4. C=CC(=O)Nc1cccc(Cl)c1Nc1n[nH]c2ccc(O[C@H](C)c3c(Cl)cncc3Cl)cc12
5. C=CC(=O)Nc1ccc(OC)cc1Nc1n[nH]c2ccc(O[C@H](C)c3c(Cl)cncc3Cl)cc12

1: 6.66; 2: 6.15; 3: 5.57; 4: 5.35; 5: 4.52

Dear colleague, could you please provide pIC50 for the compounds listed below?
1. C=CC(=O)Nc1cc(N2CCC(N3CCN(C)CC3)CC2)cc(F)c1Nc1n[nH]c2ccc(O[C@H](C)c3c(Cl)cncc3Cl)cc12
2. C=CC(=O)Nc1cc(N2CCC(N(C)C)CC2)cc(F)c1Nc1n[nH]c2ccc(O[C@H](C)c3c(Cl)cncc3Cl)cc12
3. C=CC(=O)Nc1cccc(CC)c1Nc1n[nH]c2ccc(O[C@H](C)c3c(Cl)cncc3Cl)cc12
4. C=CC(=O)Nc1cccc(Cl)c1Nc1ncc2cc(-c3c(Cl)c(OC)cc(OC)c3Cl)ccc2n1
5. C=CC(=O)Nc1cc(N(C)CCOC)cc(F)c1Nc1n[nH]c2ccc(O[C@H](C)c3c(Cl)cncc3Cl)cc12

1. 7.33
2. 7.30
3. 4.79
4. 6.80
5. 6.48

Dear colleague, could you please provide pIC50 for the compounds listed below?
1. C=CC(=O)Nc1cccc(OC)c1Nc1n[nH]c2ccc(O[C@H](C)c3c(Cl)cncc3Cl)cc12
2. C=CC(=O)Nc1cccc(C2CC2)c1Nc1n[nH]c2ccc(O[C@H](C)c3c(Cl)cncc3Cl)cc12

4.98
4.82
